- System: HepG2-TP53BP1-CLTA
- MEASUREMENT_PROTOCOL: phenotypically active (imaging signature differs from DMSO and reproducible) at any of 0.3-9 uM (binary (1 = active, 0 = inactive)); higher = active
- TEST_PARAMETERS: treatment time: 24 h
Where a name gives a salt, the structure may show the parent alone.
Classes used: yes = active, no = inactive

COMPOUND: CC(=O)N1CCN(C)CC1 [1-Acetyl-4-methylpiperazine hydrochloride]
CLASS_NAME: no
//
COMPOUND: O=C(OC12CC3CC(CC(C3)C1)C2)c1ccc(NCc2cc(O)ccc2O)cc1
CLASS_NAME: yes
//
COMPOUND: COc1ccc(CCNCc2ccc(OCc3ccc(Cl)nc3)c(OC)c2)cc1OC [SBE 13 hydrochloride]
CLASS_NAME: yes
//
COMPOUND: C=CC(=O)N1CCC[C@@H](n2nc(-c3cccc(C(=O)Nc4ccc(C(C)C)c(C)c4)c3)c3c(N)ncnc32)C1
CLASS_NAME: yes
//
COMPOUND: C=C(C)[C@@H]1CC[C@]2(C(=O)O)CC[C@]3(C)[C@H](CC[C@@H]4[C@@]5(C)CC[C@H](O)C(C)(C)[C@@H]5CC[C@]43C)[C@@H]12
CLASS_NAME: no
//
COMPOUND: CN(C)CCCC1(c2ccc(F)cc2)OCc2cc(C#N)ccc21 (stereo not drawn)
CLASS_NAME: no
//
COMPOUND: CCn1c(=O)c2cc(C(N)=O)c(N)nc2n(C2CC2)c1=O
CLASS_NAME: no
//
COMPOUND: O=C1CCc2c(ccc3ccccc23)O1
CLASS_NAME: no

FYI, the data here is from the supplement of paper PMC7411054.
